- System: BDF1 mice, P388 leukemia ip, median survival T/C
- EXPERIMENT SUMMARY: NCI In Vivo Anticancer Drug Screen. Data for tumor model P388 Leukemia (intraperitoneal) in B6D2F1 (BDF1) mice
- EXPERIMENTAL SETUP: endpoint: median survival time; dose: 12.5 mg/kg/injection; schedule: Q01DX009 (ip); vehicle: saline with Tween-80
Inconclusive results and toxic doses are left out. The calls were made as follows: active = survival T/C of 150% or more; inactive = T/C below 125% in these data.
Outcomes: active, inactive

[
  {
    "COMPOUND": "CCC[CH2][Hg][O]C(C)=O",
    "EXPERIMENTAL SYSTEM": "BDF1 mice, P388 leukemia ip, median survival T/C",
    "LABEL VALUE": "inactive"
  },
  {
    "COMPOUND": "O=C(/C=C/c1ccccc1)NC(CO)Cc1ccccc1 (centres undefined)",
    "EXPERIMENTAL SYSTEM": "BDF1 mice, P388 leukemia ip, median survival T/C",
    "LABEL VALUE": "inactive"
  },
  {
    "COMPOUND": "C[CH2][Ge]([CH2]C)[CH2]/C=C\\[CH2][Ge]([CH2]C)[CH2]C",
    "EXPERIMENTAL SYSTEM": "BDF1 mice, P388 leukemia ip, median survival T/C",
    "LABEL VALUE": "inactive"
  },
  {
    "COMPOUND": "O=C1N(Cl)C(=O)C(c2ccc(C(F)(F)F)cc2)(c2ccc(C(F)(F)F)cc2)N1Cl",
    "EXPERIMENTAL SYSTEM": "BDF1 mice, P388 leukemia ip, median survival T/C",
    "LABEL VALUE": "inactive"
  },
  {
    "COMPOUND": "Cc1ccc(NC(=O)N(CCCl)N=O)cc1NC(=O)N(CCCl)N=O",
    "EXPERIMENTAL SYSTEM": "BDF1 mice, P388 leukemia ip, median survival T/C",
    "LABEL VALUE": "active"
  },
  {
    "COMPOUND": "C[As](C)(=S)[As](C)(C)=S",
    "EXPERIMENTAL SYSTEM": "BDF1 mice, P388 leukemia ip, median survival T/C",
    "LABEL VALUE": "inactive"
  },
  {
    "COMPOUND": "O=NN(CCF)C(=O)NC1CCCCC1",
    "EXPERIMENTAL SYSTEM": "BDF1 mice, P388 leukemia ip, median survival T/C",
    "LABEL VALUE": "active"
  },
  {
    "COMPOUND": "CC/C(C)=C1\\OC(=O)C(C)C(O)C(Cc2cccnc2)NC(=O)C(NC(=O)c2ncccc2O)C(C)OC1=O (centres undefined)",
    "EXPERIMENTAL SYSTEM": "BDF1 mice, P388 leukemia ip, median survival T/C",
    "LABEL VALUE": "inactive"
  },
  {
    "COMPOUND": "CC(C)=CCCC(C)C/C=N\\O (centres undefined)",
    "EXPERIMENTAL SYSTEM": "BDF1 mice, P388 leukemia ip, median survival T/C",
    "LABEL VALUE": "inactive"
  }
]

----------
- Test system: BDF1 mice, P388 leukemia ip, median survival T/C
- EXPERIMENT SUMMARY: NCI In Vivo Anticancer Drug Screen. Data for tumor model P388 Leukemia (intraperitoneal) in B6D2F1 (BDF1) mice
- EXPERIMENTAL SETUP: endpoint: median survival time; dose: 50.0 mg/kg/injection; schedule: Q01DX009 (ip); vehicle: saline with Tween-80; higher = longer survival
Toxic doses and inconclusive results are not listed.

[
  {
    "COMPOUND": "COc1ccc(/C(=C\\S(C)(=O)=O)c2cccs2)cc1",
    "T/C": "88 % of control"
  },
  {
    "COMPOUND": "O=C1CSC(=O)CS1",
    "T/C": "99 % of control"
  },
  {
    "COMPOUND": "N#Cc1ccccc1CC(O)(c1ccccc1)c1ccccn1 (stereo unspecified)",
    "T/C": "100 % of control"
  },
  {
    "COMPOUND": "CCOC(=O)Oc1ccc(/C=N/NC(N)=S)nc1",
    "T/C": "169 % of control"
  },
  {
    "COMPOUND": "CN1CCN(C(=O)c2ccc(Cl)c(Cl)c2)CC1",
    "T/C": "99 % of control"
  },
  {
    "COMPOUND": "COC(=O)C(CSCSC)NC(=O)/C=C\\c1ccccc1 (stereo unspecified)",
    "T/C": "100 % of control"
  },
  {
    "COMPOUND": "CC(C)C(C(=O)c1ccccc1)c1ccccc1 (stereo unspecified)",
    "T/C": "109 % of control"
  },
  {
    "COMPOUND": "OC1CCCC12CC2 (stereo unspecified)",
    "T/C": "100 % of control"
  },
  {
    "COMPOUND": "CCCCCC1c2c(cc(C)[nH]c2=O)OC(O)C1CCCC (stereo unspecified)",
    "T/C": "93 % of control"
  },
  {
    "COMPOUND": "CS(=O)(=O)OCC(OS(C)(=O)=O)C(COS(C)(=O)=O)OS(C)(=O)=O (stereo unspecified)",
    "T/C": "100 % of control"
  },
  {
    "COMPOUND": "O=C(NC1CCCCC1)N(c1ccccc1)c1nnc(-c2cccc([N+](=O)[O-])c2)s1",
    "T/C": "104 % of control"
  },
  {
    "COMPOUND": "Cc1ccc(C(=O)C2CC2)c(C)c1",
    "T/C": "92 % of control"
  },
  {
    "COMPOUND": "CN(C)c1ccc(/C=C\\c2cc(/C=C/c3ccc(N(C)C)cc3)nc3ccccc23)cc1",
    "T/C": "103 % of control"
  },
  {
    "COMPOUND": "COC(=O)/C(=C1/OC(=O)C(c2ccccc2)=C1O)c1ccccc1",
    "T/C": "100 % of control"
  },
  {
    "COMPOUND": "c1cc2c3c(cccc3c1)N1C(=N2)Sc2nc3ccccc3nc21",
    "T/C": "89 % of control"
  },
  {
    "COMPOUND": "FC(F)(F)c1cccc(-c2nc3nc(Cl)c(Cl)nc3[nH]2)c1",
    "T/C": "94 % of control"
  },
  {
    "COMPOUND": "S=c1[nH]c2nccnc2[nH]1",
    "T/C": "100 % of control"
  },
  {
    "COMPOUND": "Nc1ccc(Cl)c(Cl)c1",
    "T/C": "98 % of control"
  },
  {
    "COMPOUND": "COc1ccc(C(=O)CC(C#N)c2ccc(OC)cc2)cc1 (stereo unspecified)",
    "T/C": "106 % of control"
  },
  {
    "COMPOUND": "CC1=NNB(O)c2ccsc21",
    "T/C": "96 % of control"
  },
  {
    "COMPOUND": "CCCCCC1(C)OCC(C)O1 (stereo unspecified)",
    "T/C": "101 % of control"
  },
  {
    "COMPOUND": "O=C(NC(=O)c1c(F)cccc1F)Nc1ccc2[nH]ccc2c1",
    "T/C": "100 % of control"
  },
  {
    "COMPOUND": "Oc1cc2c(cc1O)C1c3ccc(O)c(O)c3OCC1(O)C2 (stereo unspecified)",
    "T/C": "97 % of control"
  },
  {
    "COMPOUND": "OCC(O)C(O)C(O)C(O)C=Nc1ccc(/C=C/c2ccnc3ccccc23)cc1 (stereo unspecified)",
    "T/C": "109 % of control"
  },
  {
    "COMPOUND": "COC(=O)c1ccc(CBr)cc1",
    "T/C": "92 % of control"
  },
  {
    "COMPOUND": "O=CNc1ccc(/C=C\\c2ccnc3ccccc23)cc1",
    "T/C": "94 % of control"
  },
  {
    "COMPOUND": "CCN(CC)c1oc2ccc3ccccc3c2c(=O)c1Cl",
    "T/C": "97 % of control"
  },
  {
    "COMPOUND": "Cc1ccc(C(=O)N(O)c2ccccc2)cc1",
    "T/C": "98 % of control"
  },
  {
    "COMPOUND": "C=CCCCCCCCCC(=O)N(CC#N)CC(C)C",
    "T/C": "100 % of control"
  },
  {
    "COMPOUND": "CC(Nc1ccc(Br)cc1[N+](=O)[O-])C(=O)O (stereo unspecified)",
    "T/C": "94 % of control"
  },
  {
    "COMPOUND": "O=C1c2ccccc2C(=O)N1CC(O)CCl (stereo unspecified)",
    "T/C": "104 % of control"
  }
]
